Data credit: patent US20240083860A1

Test: Maximum tolerated dose test
Conditions: both, C57BL/6J, mouse, in vivo, po
recorded.endpoint: MTD at 3 days

query: Look at this molecule and give its reported MTD at 3 days. C=C(C)c1cc(Oc2c(Cl)cc(-n3nc(C#N)c(=O)[nH]c3=O)cc2Cl)ccc1O [Compound 1]
result: > 300 mg/kg

###

Molecular target: CHO cell hERG potassium current (Homo sapiens, UniProt Q12809)
Sequence (Q12809 whole entry): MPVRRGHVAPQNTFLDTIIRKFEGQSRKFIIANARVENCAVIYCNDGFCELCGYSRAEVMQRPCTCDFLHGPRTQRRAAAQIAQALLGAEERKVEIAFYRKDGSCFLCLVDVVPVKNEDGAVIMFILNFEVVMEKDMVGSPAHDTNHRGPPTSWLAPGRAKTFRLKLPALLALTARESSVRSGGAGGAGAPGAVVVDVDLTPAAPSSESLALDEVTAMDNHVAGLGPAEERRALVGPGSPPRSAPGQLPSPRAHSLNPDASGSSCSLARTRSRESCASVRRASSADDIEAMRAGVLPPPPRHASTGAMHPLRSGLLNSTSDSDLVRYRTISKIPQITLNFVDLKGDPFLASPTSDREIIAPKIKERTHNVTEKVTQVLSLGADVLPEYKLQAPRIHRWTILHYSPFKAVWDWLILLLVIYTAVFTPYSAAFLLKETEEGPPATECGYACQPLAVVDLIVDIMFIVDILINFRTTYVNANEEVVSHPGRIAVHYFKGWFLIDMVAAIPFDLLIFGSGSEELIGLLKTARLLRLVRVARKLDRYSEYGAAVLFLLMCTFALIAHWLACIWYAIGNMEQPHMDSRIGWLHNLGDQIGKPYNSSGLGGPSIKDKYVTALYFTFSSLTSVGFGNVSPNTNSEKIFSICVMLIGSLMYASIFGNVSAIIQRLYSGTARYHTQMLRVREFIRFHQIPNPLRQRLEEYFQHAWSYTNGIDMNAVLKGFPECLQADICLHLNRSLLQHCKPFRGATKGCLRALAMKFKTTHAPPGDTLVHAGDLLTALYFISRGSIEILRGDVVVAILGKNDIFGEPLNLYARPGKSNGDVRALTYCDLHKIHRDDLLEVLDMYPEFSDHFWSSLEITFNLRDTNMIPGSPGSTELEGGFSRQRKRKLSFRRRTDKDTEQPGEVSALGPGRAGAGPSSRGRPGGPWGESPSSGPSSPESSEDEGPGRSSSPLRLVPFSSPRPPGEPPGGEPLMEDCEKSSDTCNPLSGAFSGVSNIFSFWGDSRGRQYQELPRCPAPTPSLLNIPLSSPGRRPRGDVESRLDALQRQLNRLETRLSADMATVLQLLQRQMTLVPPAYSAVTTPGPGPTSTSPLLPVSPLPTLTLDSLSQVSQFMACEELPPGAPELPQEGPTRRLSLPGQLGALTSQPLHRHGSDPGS
Test: cell-based
recorded.endpoint: IC50

query: Look at this compound and give its reported IC50. C=C(C)c1cc(Oc2c(Cl)cc(-n3nc(C#N)c(=O)[nH]c3=O)cc2Cl)ccc1O
result: > 13.3 µM
